# maps each entry to its self-cleavage
B1: Hairpin Ribozyme (parent)
chain: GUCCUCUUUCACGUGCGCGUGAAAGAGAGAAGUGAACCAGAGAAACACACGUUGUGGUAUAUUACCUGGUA

- Variants of: B1
- assay-info: self-cleavage, relative activity (ratio to wild type); higher = more cleavage; co-transcriptional
// print number alone

input: Answer with reported self-cleavage of U60A C66U
output: 0.274

input: Answer with reported self-cleavage of U5A A11C
output: 0.281

input: Answer with reported self-cleavage of U14A A22G
output: 0.762
